# study.system: T1, human GIP receptor (human, UniProt P48546 22-466)
# T1 sequence (looked up): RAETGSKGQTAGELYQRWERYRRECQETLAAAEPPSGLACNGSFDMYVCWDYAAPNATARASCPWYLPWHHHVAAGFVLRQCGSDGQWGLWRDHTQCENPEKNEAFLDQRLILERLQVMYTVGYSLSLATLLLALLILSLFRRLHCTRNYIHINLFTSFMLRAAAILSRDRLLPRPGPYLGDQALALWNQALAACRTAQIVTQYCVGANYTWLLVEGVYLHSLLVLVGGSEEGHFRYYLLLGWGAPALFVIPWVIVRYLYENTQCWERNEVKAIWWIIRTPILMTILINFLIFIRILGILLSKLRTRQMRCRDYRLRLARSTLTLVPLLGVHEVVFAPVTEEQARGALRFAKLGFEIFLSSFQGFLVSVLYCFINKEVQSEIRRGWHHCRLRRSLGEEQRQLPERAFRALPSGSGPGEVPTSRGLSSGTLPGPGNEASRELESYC
# assay.info: cell-based or functional assay
*1 amine or outer side, *2 acyl side, *3 side chain or, on linkers, in order; H or OH if unused. Where no end group is shown, it is not given here. Side-chain parts run from the residue outwards. [ ]: non-standard residue; d: D form. The star is where a group is joined. C20 diacid = O=C(O)CCCCCCCCCCCCCCCCCCC(=O)*; γGlu = O=C(O)[C@H](CCC(=O)[*:2])N[*:1]; Aib = CC(C)(N)C(=O)O
Give EC50, CreLuc reporter, 100% hP for every item shown.
Unit nM implied. Number only.

If you can, please state the reported EC50, CreLuc reporter, 100% hP value of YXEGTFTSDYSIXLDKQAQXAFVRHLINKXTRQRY (Aib at 2, 20, 30; aMeL at 13; Lys29 epsilon-amino acylated with C18DA-gGlu-gGlu-gGlu-gGlu-gGlu-gGlu-eLys; C-terminal amide) [Compound 67] .
1.7

If you can, please state the reported EC50, CreLuc reporter, 100% hP value of YXEGTFTSDYSIXLEKQEQXAFVRHLINKXTRQRY (Aib at 2, 13, 20, 30; Lys29 epsilon-amino acylated with C18DA-gGlu-gGlu-gGlu-gGlu-gGlu-gGlu-eLys; C-terminal amide) [Compound 36] .
41.4

If you can, please state the reported EC50, CreLuc reporter, 100% hP value of YXEGTFTSDYSIXLEKEAQXAFVRHLINKXTRQRY (Aib at 2, 13, 20, 30; Lys29 epsilon-amino acylated with C20DA-gGlu-gGlu-gGlu-gGlu-gGlu-gGlu-eLys; C-terminal amide) [Compound 28] .
208

If you can, please state the reported EC50, CreLuc reporter, 100% hP value of Y[Aib]EGTFTSDLSI[Aib]LEKQAQ[Aib]AFVRHLINK([γGlu-γGlu-γGlu-γGlu-γGlu-γGlu-C20 diacid])[Aib]TRQRY-NH2 [Compound 51] .
13.8
